The measurements presented in this section are drawn from the array DNA melting data of Ke et al. (doi:10.1101/2024.01.08.574731).

The following sequences are listed with their measured Tm values.
Assay: melting temperature; fluorescence melt of hairpins on a sequencing array, two-state fit, raised by 9.35 °C to match UV melts
Conditions: sodium 0.088 M
Measurement label: Tm (°C)

* GATCATTACGATGATC ((((((....)))))) | 48.5
* GGGTGAGCGAAAGCTCCC (((..(((....)))))) | 49.1
* GCCGCTTCGAAAGAAGGC (((..(((....)))))) | 49.7
* GCCACTGCGAAAGCAGGC (((..(((....)))))) | 46
* AACGGGAAACCGTT (((((....))))) | 50.6
* GCTGCCCGAAAGGGAGC (((.(((....)))))) | 57.1
* GCAGACCGAAAGGTTTGC (((.(((....))).))) | 63.4
* GCCCCGCGAAAGCCGCGC ((.(.((....)).).)) | 31.5
* GGAGACGGAAACATCTCC (((((.(....).))))) | 39.5
* GGAGACGAAAGTCGTCC ((((((....))).))) | 49.5
* GATCAAGGAGTTGATC ((((((....)))))) | 45.3
* GCGAACCCGAAAGGGCGC (((..(((....)))))) | 55.5
* GTACCAGGAAACCAGTAC ((((..(....)..)))) | 24.9
* GATGTCCGAAAGGAAATC (((.(((....))).))) | 43.6
* GAGGGCGGAAACGCCTTC ((.((((....)))).)) | 50.5
* GAGCACGGAAACACGCTC ((((..(....)..)))) | 37
* GGGTTCGAAAGAAACCCC ((((((....)))..))) | 52.5
* GCTGTCGAAAGACGTAGC ((((((....)))..))) | 48.1
* GATCTCCATCGAGATC ((((((....)))))) | 50.7
* GTTCGCGAAAGCGCAAC ((((((....))).))) | 45.6
* GCATCTGAAAAGATGC ((((((....)))))) | 64.7
* GCGTAGACGAAAGTCCGC (((..(((....)))))) | 53.7
* GGGTGTCCGAAAGGACCC (((..(((....)))))) | 55
* GATCCTGTACAGGATC ((((((....)))))) | 60.2
* GCGGACGAAAGTCTTCGC ((((((....)))..))) | 45.9
* GATCTGCCTCAGATC ((((((...)))))) | 48.7
* GCTTCAGGAAACTGAAGC (((((((....))))))) | 66
* GTTTGTGGAAACACAAGC (.(((((....))))).) | 45.1
* GTTCACGAAAGTGTCAAC ((((((....)))..))) | 28.6
* GTGAAACGAAAGTTCAC (((.(((....)))))) | 47.6

====

Experiment: folding enthalpy; higher = less favourable; fluorescence melt of hairpins on a sequencing array, two-state fit
Settings: sodium 0.088 M
The following sequences are listed with their measured folding enthalpy values.
Measurement label: folding enthalpy

- GAACGAGCGAAAGCTTTC (((..(((....)))))): -8.11 kcal/mol
- GATCTCGAATGAGATC ((((((....)))))): -39.5 kcal/mol
- GATCAGAGCCTGATC ((((((...)))))): -25.4 kcal/mol
- GATCTGGCCGCAGATC ((((((....)))))): -36 kcal/mol
- GTATCCGAAAGGAAATAC ((((((....)))..))): -16.8 kcal/mol
- GCCTCCGAAAGGAGCGGC ((((((....)))..))): -15.6 kcal/mol
- GTCCGTGGAAACATGGGC (.((.((....)).)).): -24.9 kcal/mol
- GTCATACGAAAGTAGGAC (((.(((....))).))): -29.3 kcal/mol
- GTCAACGAAAGTTAGAC ((((((....))).))): -23.5 kcal/mol
- GCCGAGCGAAAGCTAAGC ((..(((....)))..)): -16.3 kcal/mol
- GCGTGTCGAAAGACCCGC (((.(((....))).))): -42 kcal/mol
- GCCTGGCGAAAGCTACGC ((.(.((....)).).)): -6.66 kcal/mol
- GATCTAACTTAGATC ((((((...)))))): -29.3 kcal/mol
- GATTTTGGAAACAAAGTC ((.((((....)))).)): -27.5 kcal/mol
- GATGGTGGAAACACCGTC ((.((((....)))).)): -23.7 kcal/mol
- GATTCCGGAAACGGAATC (((((((....))))))): -42.5 kcal/mol
- GATCTGCAAACAGATC ((((((....)))))): -35.9 kcal/mol
- CGCGGACTAATCCGCG ((((((....)))))): -38.3 kcal/mol
- GATCCAAGTGTGGATC ((((((....)))))): -32.3 kcal/mol
- GTACTCACGAAAGTGTAC (((..(((....)))))): -11 kcal/mol
- GTTGAAGGAAACTCCAAC ((((.((....)).)))): -17.5 kcal/mol
- GACTTCCCGAAAGGGGTC (((..(((....)))))): -10.5 kcal/mol
- CGCGCTCGGAAACGAGCG (((..(((....)))))): -7.49 kcal/mol
- GTCGTTCCGAAAGGAGAC (((..(((....)))))): -22 kcal/mol
- GTATCGCGAAAGCGTAC (((.(((....)))))): -12.1 kcal/mol
- CGAGCCCGGAAACGGTCG (((..(((....)))))): -20.9 kcal/mol
- GCCATCGGAAACGATAGC ((.((((....)))).)): -21.6 kcal/mol
- GCATAATCGAAAGATTGC (((..(((....)))))): -18.1 kcal/mol
- GATCTAGTACTAGATC ((((((....)))))): -51.4 kcal/mol
- GACAGCGGAAACACTGTC (((((.(....).))))): -33.4 kcal/mol
- GATCCATCCTTGGATC ((((((....)))))): -44.2 kcal/mol
- GATCTCCTAAGAGATC ((((((....)))))): -42.6 kcal/mol
- GAAGCCGGAAACGACTTC ((((.((....)).)))): -34.4 kcal/mol
- GTTCGCCGAAAGGCTAAC (((.(((....))).))): -19.6 kcal/mol
- GTTCAGGGAAACCTGAAC (((((((....))))))): -43.2 kcal/mol
- GTAGGCGAAAGCCGTAC ((((((....))).))): -13 kcal/mol
- GCGAGCGAAAGCTGGCGC ((((((....)))..))): -25 kcal/mol
- GGTTATGGAAACATAGCC ((.((((....)))).)): -31.1 kcal/mol
- CGCGTCGGAAACGATGCG (((.(((....))).))): -54.9 kcal/mol
- GCGCTCGAAAGAGCCGC ((((((....))).))): -18.7 kcal/mol
